- Tested on: MDA-MB-231 breast
- ASSAY_PROTOCOL: NCI-60 one-dose screen, 48 h
- TEST_SETTINGS: 10 µM
The panel holds about 83,000 compounds, 20% with a hit somewhere; the sample as a whole holds those more often. Calls of active or inactive are those of the source. Rule for the calls: active = growth percent below 10; inactive = the rest.
Select the correct class. Options are active, inactive and nothing else.

Lab log entry: COc1cccc(C(=O)Nc2ccc(CN3CCc4nc5cc(OC)c(OC)cc5cc43)cc2)c1 — outcome as called in the assay?
inactive

Lab log entry: Cc1ccc(NC(=O)Nc2c(Cl)cccc2Cl)cn1 — outcome as called in the assay?
inactive

Lab log entry: CN(C)c1ccc(-c2cc(-c3cccc(NS(C)(=O)=O)c3)nc(N)c2C#N)cc1 — outcome as called in the assay?
active

Lab log entry: COc1cc(OC)cc(-c2cncn2-c2ccc(-c3nc4cc(OC)cc(OC)c4s3)cc2)c1 — outcome as called in the assay?
inactive

Lab log entry: Cc1cc(Cc2cc(C)c(O)c(C)c2)cc(C)c1O — outcome as called in the assay?
inactive

Lab log entry: COc1cc(/C=C/C(=O)c2ccc(Cl)cc2)ccc1OS(=O)(=O)c1ccc(C)cc1 — outcome as called in the assay?
inactive

Lab log entry: CCCCOC(=O)Oc1ccc(C(=O)Oc2ccc(OCC)cc2)cc1 — outcome as called in the assay?
inactive

Lab log entry: C=C(Cl)[C@@](Cl)(CBr)CC[C@@H](Br)C(C)(C)Cl — outcome as called in the assay?
active

Lab log entry: CN(C)CCOc1nc2ccccc2c2c1-c1ccc(Cl)cc1C2=O — outcome as called in the assay?
inactive

Lab log entry: O=C(O)c1ccc(P(=O)(O)O)c([N+](=O)[O-])c1 — outcome as called in the assay?
inactive

Lab log entry: O=C(N/N=C/c1ccccc1O)C(O)(c1ccccc1)c1ccccc1 — outcome as called in the assay?
inactive

Lab log entry: CCN(CCCCCCCCCCN1CC(=O)N(CCCCCCCCCCN(CC)Cc2ccccc2OC)CC1=O)Cc1ccccc1OC — outcome as called in the assay?
active

Lab log entry: Cc1cccc(Cl)c1NC(=O)c1ccc2nc(NC(=O)NC3CCN(C)CC3)sc2c1 — outcome as called in the assay?
inactive

Lab log entry: N=C(N)c1ccc(-c2ccc(-c3ccco3)o2)cc1 — outcome as called in the assay?
inactive

Lab log entry: Cc1nc2oc3ccccc3c(=O)c2cc1C(=O)NCc1ccccc1 — outcome as called in the assay?
inactive

Lab log entry: COc1ccc(-c2cc(/C=C3\C(=O)Nc4ccc(OC)cc43)[nH]n2)cc1 — outcome as called in the assay?
inactive

Lab log entry: CCN(CC)CCOc1nc2ccc(OC)cc2c2c1-c1ccc(OC)cc1C2=O — outcome as called in the assay?
inactive

Lab log entry: COc1ccc(/C(=C2/O[C@@H]([C@H]3COC(C)(C)O3)[C@H]3OC(C)(C)O[C@@H]23)c2cc(OC)c(OC)c(OC)c2)cc1O — outcome as called in the assay?
inactive

Lab log entry: O=C1/C(=C\c2ccc(F)cc2)CN(C(=O)c2ccccc2)C/C1=C\c1ccc(F)cc1 — outcome as called in the assay?
active

Lab log entry: COc1ccc(-c2cc(-c3cccc(NS(C)(=O)=O)c3)nc(N)c2C#N)cc1 — outcome as called in the assay?
inactive

Lab log entry: CCOC(=O)C1(CC(C)C)CCOC1=O (stereo unspecified) — outcome as called in the assay?
inactive

* * *

- Test system: T-47D breast
- ASSAY_PROTOCOL: NCI-60 one-dose screen, 48 h
- TEST_SETTINGS: 10 µM
This is part of a sample that, as a whole, favours compounds with a hit. Of some 83,000 tested, about 20% had one in any assay. Active and inactive are the calls of the source. Rule for the calls: active = growth percent below 10; inactive = the rest.
Select the correct class. Options are label 1 (active), label 0 (inactive) and nothing else.

Lab log entry: Cc1cc(N(CCCNc2ccnc3cc(Cl)ccc23)Cc2cccs2)nc(Cl)n1 — outcome as called in the assay?
label 0

Lab log entry: N=c1nc(N)ncn1-c1ccccc1 — outcome as called in the assay?
label 0

Lab log entry: CC1(C)N=C(N)N=C(N)N1c1ccc(CCc2ccccc2)c(Cl)c1 — outcome as called in the assay?
label 0

Lab log entry: COc1ccccc1CNCCCN1C(=O)c2ccc3c4c(ccc(c24)C1=O)C(=O)N(CCCN)C3=O — outcome as called in the assay?
label 1

Lab log entry: Cc1cc(C)c2c(n1)sc1c(Nc3ccc(Cl)cc3)ncnc12 — outcome as called in the assay?
label 0

Lab log entry: COc1ccc(/C=C/C(=O)Nc2ccc(-c3nc4ccc(OC)cc4s3)cc2)cc1 — outcome as called in the assay?
label 0

* * *

- Test system: DU-145 prostate
- ASSAY_PROTOCOL: NCI-60 one-dose screen, 48 h (100 = growth as untreated, 0 = no growth, -100 = all killed)
- TEST_SETTINGS: 10 µM
This is part of a sample that, as a whole, favours compounds with a hit. Of some 83,000 tested, about 20% had one in any assay.
For each entry below, report its growth value.
API: value field is a number in %; no unit string.

State its growth on DU-145 prostate: O=[N+]([O-])c1cccc(-c2ncc(-c3ccc(Cl)cc3Cl)[nH]2)c1
40

State its growth on DU-145 prostate: C/C(=N\Nc1nc2ccccc2s1)c1ccncn1
28.3

State its growth on DU-145 prostate: O=C(CCCCCCC(=O)Nc1cccnc1)NO
40.1

State its growth on DU-145 prostate: CC(=O)N(C)c1ccc(Nc2ccc(Nc3ccc(N(C)C(C)=O)cc3)c3c2C(=O)c2ccccc2C3=O)cc1
91.2

State its growth on DU-145 prostate: CCCCCCCCCCCCCC[n+]1ccc(C(N)=O)cc1
22.8

State its growth on DU-145 prostate: Oc1[nH]c2ccc(Cl)cc2c1/C=c1/ccc2c(c1)N=C(c1cc(F)cc(F)c1)N=2
81.8

State its growth on DU-145 prostate: CCN(CC)CCN1CC(=O)Nc2cc(Cl)ccc21
120

State its growth on DU-145 prostate: CCc1ccc2c(c1)N(CCO)C1=C(C(=O)OC1)C2c1ccccc1 (stereo unspecified)
115

State its growth on DU-145 prostate: CCN1Cc2c(/C=C/c3ccccc3)nc3ccc(OC)cc3c2N(c2cccc(Cl)c2)C1
112

State its growth on DU-145 prostate: CC(=O)CSC(C)=O
117

State its growth on DU-145 prostate: COc1ccc(Nc2ncnc3c2c(SC)nn3-c2ccccc2)cc1
101

* * *

- Test system: UO-31 renal
- ASSAY_PROTOCOL: NCI-60 one-dose screen, 48 h (100 = growth as untreated, 0 = no growth, -100 = all killed)
- TEST_SETTINGS: 10 µM
This is part of a sample that, as a whole, favours compounds with a hit. Of some 83,000 tested, about 20% had one in any assay.
For each entry below, report its growth value.
API: value field is a number in %; no unit string.

Name the recorded growth for COc1ccc(Nc2ncnc3c2c(SC)nn3-c2ccccc2)cc1 .
77.2

Name the recorded growth for O=C1N=NC2=C1c1c3ccccc3c(O)n1CC2 .
90

Name the recorded growth for COc1cc(-c2nc(-c3nnc(-c4ccccc4Cl)o3)c3ccccn23)cc(OC)c1OC .
67.6

Name the recorded growth for COc1ccc(/C=C2/CN(CCC#N)C/C(=C\c3ccc(OC)cc3)C2=O)cc1 .
-43.8

Name the recorded growth for O=C(CCCCC[P+](c1ccccc1)(c1ccccc1)c1ccccc1)NC(COC(=O)C(Cl)Cl)(COC(=O)C(Cl)Cl)COC(=O)C(Cl)Cl .
94

Name the recorded growth for COc1cc2nc(Nc3cccc(NC(C)=O)c3)nc(N)c2cc1OC .
78.4

Name the recorded growth for CN(C)c1ccc(N=C2C=CC(=O)c3ccccc32)cc1 .
48.8

Name the recorded growth for O=C1/C(=C\c2ccc(F)cc2)CN(C(=O)c2ccccc2F)C/C1=C\c1ccc(F)cc1 .
-72.6

Name the recorded growth for COc1ccc(-c2nn(-c3cccc(NC(=O)c4cccc(C(F)(F)F)c4)c3)cc2-c2ccncc2)cc1Cl .
13.9

Name the recorded growth for CCCCCCCCCCCCCC[n+]1ccc(C(N)=O)cc1 .
50.7

* * *

- Tested on: NCI-H460 lung
- ASSAY_PROTOCOL: NCI-60 one-dose screen, 48 h (100 = growth as untreated, 0 = no growth, -100 = all killed)
- TEST_SETTINGS: 10 µM
The panel holds about 83,000 compounds, 20% with a hit somewhere; the sample as a whole holds those more often.
Label Fulfilled when growth >= 90%; otherwise Not fulfilled.

Could you verify whether the entry O=C1/C(=C\c2ccc(Br)cc2)CN(C(=O)c2ccccc2F)C/C1=C\c1ccc(Br)cc1 shows growth of no less than 90%?
Not fulfilled

Could you verify whether the entry O=[N+]([O-])c1ccc(N/N=C/c2cccc3ccccc23)nc1 shows growth of no less than 90%?
Fulfilled

Could you verify whether the entry C[C@@H]1C=C2C(=O)O[C@@H]3CC[C@H](C1)[C@]23O shows growth of no less than 90%?
Not fulfilled

Source of measurements: PubChem BioAssay (NCI)
